- Assay Procedure: Inhibition of [3H]cytisine binding to rat cerebral cortical membrane neuronal Nicotinic acetylcholine receptor
Lab note - cut at 4 nM for Ki: Condition met if strictly below, Condition not met if not.

INSERT INTO measurements (structure_as_smiles, category) VALUES
  ('C[N+]1(C)C2CCC1CN(c1ccc(Cl)nn1)C2', 'Condition met'),
  ('Clc1ccc(N2CCCNCC2)nn1', 'Condition met'),
  ('CN1C2CCC1CN(c1ccc(Cl)nn1)C2', 'Condition not met'),
  ('CN1CCCN(c2ccc(Cl)nn2)CC1', 'Condition not met'),
  ('C[N+]1(C)CCCN(c2ccc(Cl)nn2)CC1', 'Condition not met'),
  ('CN1CCN(c2ccc(Cl)nn2)CC1', 'Condition not met'),
  ('Clc1ccc(N2CCNCC2)nn1', 'Condition not met');
